Hello, the source for this data is ChEMBL document CHEMBL1137068, in case you need it.

- SUBJECT OF TEST: 5-hydroxytryptamine receptor 1F (Homo sapiens)
- ASSAY METHOD TEXT: Maximum stimulation of [35S]GTP-gamma-S, binding to human 5-hydroxytryptamine 1F receptor expressed in Mouse LM(tk-) cells relative to maximum effect of 5-HT
- Format: functional, cell-based
OUTCOME MEASURE: Emax (%)

Briefly, Emax measured for `CN1CCC(N2CNc3ccc(NC(=O)c4ccc(F)cc4Cl)cc32)CC1` : 98

Sample `CN1CCC(c2noc3ccc(NC(=O)c4ccc(F)cc4F)cc23)CC1` ; Emax observed: 73

For `CN1CCC(c2noc3ccc(NC(=O)c4ccc(F)cc4Cl)cc23)CC1` the compound record lists Emax as 71

Entry under test: `CN1CCC(N2CNc3ccc(NC(=O)c4c(F)cc(F)cc4F)cc32)CC1` . Its Emax was 95
